test system: SF-268 CNS; assay: NCI tumour cell line growth inhibition, 48 h
Measured Endpoint: TGI (µM)
Lab book: enter the figure in µM, no units written.

O=C(Nc1ccccc1)Nc1ccc2cc3ccc(NC(=O)Nc4ccccc4)cc3nc2c1 ... 3.54
CNC(=O)c1c(NC(=O)c2ccc(C(C)(C)C)cc2)sc2c1CCC(=O)C2 ... 1.85
COc1cc(OC)c2c3c(OC)cc(OC)c4c(=O)c(O)c(C[C@@H](C)O)c(c5c(C[C@@H](C)O)c(O)c(=O)c1c25)c43 ... 70.4

Alright, here's another compound for you.
Sample `Cc1cccc2nc3ccccc3c(Nc3ccc(NS(C)(=O)=O)cc3)c12` ; TGI observed: 30.2

----------
test system: RPMI-8226 leukemia; assay: NCI tumour cell line growth inhibition, 48 h
Here the recorded GI50 is given for each entry.

The cases that follow already have their GI50 on record.
CCN(Cc1ccccc1)C1CCN(Cc2cc(Br)ccc2O)CC1 ... 25.5 µM
Cn1cc(-c2ccc3cc(-c4ccc(CC(=O)Nc5cc(C(C)(C)C)on5)cc4)cnc3c2)cn1 ... 2.34 µM
Cc1cccc2nc3ccccc3c(Nc3ccc(NS(C)(=O)=O)cc3)c12 ... 2.68 µM

According to the records, this compound `COc1cc(OC)cc(-c2n/c(=C\c3c(O)[nH]c4ccc(OC)cc34)cc3c2=Nc2ccccc2-3)c1` displays GI50 of 8.88 µM

Input `COC(=O)[C@H](Cc1cnc[nH]1)NC(=O)[C@@H](NC(=O)Nc1cc(C(F)(F)F)cc(C(F)(F)F)c1)C(C)C` . Output GI50: 16.1 µM

Note to self: GI50 recorded for `COc1ccc2c(c1)nc(C(=O)c1ccco1)c(C(F)(F)F)[n+]2[O-]` was > 100 µM

----------
tested on: SK-MEL-28 melanoma; experiment: NCI tumour cell line growth inhibition, 48 h
Measured Endpoint: GI50

COc1ccc(C/C(=C(\C)c2ccc(OCCN3CCCC3)cc2)c2ccc(OCCN3CCCC3)cc2)cc1 ... 1.82 µM

GI50 on SK-MEL-28 melanoma for `Cc1ccc(/C=N/Nc2nc(Nc3ccccc3)nc(-n3nc(C)cc3C)n2)cc1` is 6.12 µM

----------
tested on: NCI-H522 lung; experiment: NCI tumour cell line growth inhibition, 48 h; in the data active means GI50 below about 0.43 µM; inactive means the rest
Answer with one of the outcomes given here: active, inactive

The following compounds have reported results that may help.
COc1ccc(CN2c3ccccc3Sc3ccccc32)c(C(F)(F)F)c1 ... active
CCN(CC)CCN1C(=O)c2c(c3c4ccccc4[nH]c3c3ccc4ccccc4c23)C1=O ... inactive
O=C(Nc1ccccc1)Nc1ccc2cc3ccc(NC(=O)Nc4ccccc4)cc3nc2c1 ... inactive

So what was the verdict on `CC(=O)[O-].Cn1ccnc1CNCc1nccn1C.[Cu+2].[O-][Cl+3]([O-])([O-])[O-]` in this test?
inactive

Which result was noted for this compound in the test: `COc1ccc2c(c1)[nH]c(=O)c1c3cccc(F)c3cn21`
active

----------
test system: CCRF-CEM leukemia; test: NCI tumour cell line growth inhibition, 48 h; in the data active = GI50 below about 0.43 µM; inactive = the rest
Outcome (select one): active, inactive

COc1ccc(C/C(=C(\C)c2ccc(OCCN3CCCC3)cc2)c2ccc(OCCN3CCCC3)cc2)cc1 ... inactive

Please look at the following compound next.
State the result this test recorded for `CC(=O)[O-].Cn1ccnc1CNCc1nccn1C.[Cu+2].[O-][Cl+3]([O-])([O-])[O-]` .
inactive
